targetEntity: T1, human Protein S (UniProt P07225 42-676)
T1 chain: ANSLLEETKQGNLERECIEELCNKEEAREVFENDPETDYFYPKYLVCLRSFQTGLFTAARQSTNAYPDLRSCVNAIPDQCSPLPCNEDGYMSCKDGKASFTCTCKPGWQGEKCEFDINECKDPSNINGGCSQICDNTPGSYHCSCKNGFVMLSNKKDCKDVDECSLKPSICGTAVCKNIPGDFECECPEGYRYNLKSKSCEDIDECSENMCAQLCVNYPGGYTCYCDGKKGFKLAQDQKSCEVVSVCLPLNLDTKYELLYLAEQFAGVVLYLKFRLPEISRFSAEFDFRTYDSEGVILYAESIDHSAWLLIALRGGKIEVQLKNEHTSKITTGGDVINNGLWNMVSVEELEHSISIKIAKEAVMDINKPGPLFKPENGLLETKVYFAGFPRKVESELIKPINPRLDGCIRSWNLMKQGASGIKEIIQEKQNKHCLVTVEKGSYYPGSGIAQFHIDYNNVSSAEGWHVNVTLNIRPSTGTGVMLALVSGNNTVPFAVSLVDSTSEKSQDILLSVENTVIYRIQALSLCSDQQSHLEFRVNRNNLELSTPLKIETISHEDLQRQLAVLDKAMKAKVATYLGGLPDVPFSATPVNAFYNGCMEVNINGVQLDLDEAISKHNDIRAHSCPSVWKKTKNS
procedureDetails: LANCE competition
readoutLabel: pIC50
Friendly reminder that pIC50 comes from taking -log10 of the concentration in mol/L.

Form field: reported pIC50 of Ac-EVYVSAGWYNYNEDAYYEFW-NH2 [JBS3287]
8.92

Form field: reported pIC50 of Ac-VIEVSAGWYDYNEDKYYEFW-NH2 [JBS3303]
8.77

Form field: reported pIC50 of Ac-EYIVEAGWYDINEDKYLEFY-NH2 [JBS3264]
8.70

Form field: reported pIC50 of Ac-EGYVSAGWYDYNKDIYLEFE-NH2 [JBS3259]
8.43

Form field: reported pIC50 of Ac-EYYVSAGWYDYNTDTYYEFEC-NH2 (not fully specified (residue 21), Tetramer of JBS3319 monomers with a four arm 10 kD PEG moiety) [JBS3321]
9.15

Form field: reported pIC50 of Ac-ESIVSAGWYDYNTDEYYEFF-NH2 [JBS3267]
8.77

Form field: reported pIC50 of Ac-AYIVEAGWYDYNTDTYEEFW-NH2 [JBS3305]
8.43

Form field: reported pIC50 of Ac-ITHVTAGWYDYNTDTYYEFI-NH2 [JBS3302]
8.46

Form field: reported pIC50 of Ac-EFIVSAGWYDYNKDTYIEFE-NH2 [JBS3292]
8.57

Form field: reported pIC50 of Ac-IIMVSAGWYDYNTDTYYEFE-NH2 [JBS3301]
8.89

Form field: reported pIC50 of Ac-FGIVSAGWYDYNTDTYYEPY-NH2 [JBS3269]
7.24

Form field: reported pIC50 of Ac-WYEVEIGWYDYNTDTYQEFY-NH2 [JBS3308]
8.85

Form field: reported pIC50 of Ac-EVHVSAGWYDYNNDTYYEFG-NH2 [JBS3275]
8.92

Form field: reported pIC50 of Ac-EYTASAGWYDYNSDTYYEFE-NH2 [JBS3255]
8.02

Form field: reported pIC50 of Ac-FGIISAGWYDYNEDAYSEFY-NH2 [JBS3270]
8.92

Form field: reported pIC50 of Ac-EYTISAGWYDYNTDMYYEFV-NH2 [JBS3254]
8.80

Form field: reported pIC50 of Ac-YGIVEAGWYEYNTDEYIEFW-NH2 [JBS3256]
8.77

Form field: reported pIC50 of Ac-FEYVIAGWYDYNTDTYHEFN-NH2 [JBS3272]
8.85

Form field: reported pIC50 of Ac-EHIVSAGWYDYNMDEYYEFW-NH2 [JBS3294]
8.20

Form field: reported pIC50 of Ac-EYTVSAGWYNYNADEYYEFE-NH2 [JBS3253]
8.55

Form field: reported pIC50 of Ac-EVEVSAGWYEYNTDTYYEFW-NH2 [JBS3282]
8.39

Form field: reported pIC50 of Ac-KMHVSIGWYDYNNDIYYEFY-NH2 [JBS3298]
9.00

Form field: reported pIC50 of Ac-ESYVSAGWYDYNTDTYYEFY-NH2 [JBS3262]
9.00

Form field: reported pIC50 of Ac-EAMVSAGWYDYMNDTYYEFE-NH2 [JBS3293]
8.68

Form field: reported pIC50 of Ac-DVYVSAGWYDYNEDTYYEFS-NH2 [JBS3288]
8.51

Form field: reported pIC50 of Ac-HYNVSAGWYDYNNDEYFEFY-NH2 [JBS3307]
8.85

Form field: reported pIC50 of Ac-VFYVSAGWYDYNDDKYYEFW-NH2 [JBS3304]
8.82

Measured values drawn from patent US20150246947A1 for this set.
